molecular target: Ubiquitin thioesterase OTUB1 (Homo sapiens, UniProt Q96FW1); experiment: Inhibition of N-terminal His-6 tagged OTUB1 (40 to 271 residues) (unknown origin) expressed in Escherichia coli BL21 (DE3) cells at 100 nM using Ub-Rho measured after 0.5 to 3 hrs by fluorescence based Plate reader method relative to control; conditions: time 0.5-3 hrs, values are per cent of control
Sequence (Q96FW1 whole entry, the tested form may be a part): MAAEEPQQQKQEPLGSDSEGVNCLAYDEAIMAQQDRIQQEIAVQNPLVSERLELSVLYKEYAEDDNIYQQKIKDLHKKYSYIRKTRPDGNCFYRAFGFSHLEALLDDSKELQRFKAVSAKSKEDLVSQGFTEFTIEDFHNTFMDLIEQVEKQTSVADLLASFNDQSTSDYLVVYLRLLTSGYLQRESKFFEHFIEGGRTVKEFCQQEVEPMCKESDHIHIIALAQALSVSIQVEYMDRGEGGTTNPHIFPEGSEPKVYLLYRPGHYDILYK
residual activity listing for selected compounds.
The answer is to be given in %; state only the numeric part.

Worked cases, answers included:
* O=C1c2ccccc2C(=O)c2oc(-c3c(Cl)cccc3Cl)nc21 | 21
* COc1cc(-c2nc3c(o2)C(=O)c2ccccc2C3=O)ccc1Cl | 40.4
* O=C1c2ccccc2C(=O)c2oc(-c3ccc(C(F)(F)F)cc3)nc21 | 29
* O=C1c2ccccc2C(=O)c2oc(-c3cccc(Cl)c3)nc21 | 34.7
* CN1CCN(CCOc2ccc(Cl)c(-c3nc4c(o3)C(=O)c3ccccc3C4=O)c2F)CC1 | 7.2

Given the entry N#Cc1ccc(-c2nc3c(o2)C(=O)c2ccccc2C3=O)cc1 , report its measured residual activity.
15.2

Given the entry CN1CC[C@@H](Oc2cc(Cl)cc(-c3nc4c(o3)C(=O)c3ccccc3C4=O)c2)C1 , report its measured residual activity.
41.5

Given the entry O=C1c2ccccc2C(=O)c2oc(-c3cccc([N+](=O)[O-])c3)nc21 , report its measured residual activity.
18.9

Given the entry COc1ccc(F)c(-c2nc3c(o2)C(=O)c2ccccc2C3=O)c1Cl , report its measured residual activity.
20.5

Given the entry CN1CC[C@H](Oc2cccc(-c3nc4c(o3)C(=O)c3ccccc3C4=O)c2)C1 , report its measured residual activity.
38.7

----------
assay: Aqueous solubility of the compound measured after 24 hr by […] LC-MS/MS analysis; assay type: physicochemical; conditions: buffer
Reported metric: solubility

Worked cases, answers included:
• CN1CCN(CCOc2ccc(F)c(-c3nc4c(o3)C(=O)c3ccccc3C4=O)c2Cl)CC1 = Soluble
• CN1CCN(CCOc2ccc(Cl)c(-c3nc4c(o3)C(=O)c3ccccc3C4=O)c2F)CC1 = Soluble
• O=C1c2ccccc2C(=O)c2oc(-c3cccc(C(F)(F)F)c3)nc21 = Insoluble
• O=C1c2ccccc2C(=O)c2oc(-c3c(F)cccc3Cl)nc21 = Insoluble

Given the entry CN1CC[C@@H](Oc2ccc(Cl)c(-c3nc4c(o3)C(=O)c3ccccc3C4=O)c2F)C1 , report its measured solubility.
Soluble

----------
biological target: UniProt:Q96FW1; assay: Inhibition of N-terminal His-6 tagged OTUB1 (40 to 271 residues) (unknown origin) expressed in Escherichia coli BL21 (DE3) cells at 10 nM using Ub-Rho measured after 0.5 to 3 hrs by fluorescence based Plate reader method relative to control; conditions: time 0.5-3 hrs, values are per cent of control
residual activity listing for selected molecules.
Give your result as the value with the unit written after it.

Worked cases, answers included:
• O=C1c2ccccc2C(=O)c2oc(-c3ccc(F)cc3)nc21 = 55.8%
• CN1CCN(CCOc2cccc(-c3nc4c(o3)C(=O)c3ccccc3C4=O)c2)CC1 = 66.8%
• COc1ccc(Cl)c(-c2nc3c(o2)C(=O)c2ccccc2C3=O)c1F = 48.7%
• N#Cc1ccc(-c2nc3c(o2)C(=O)c2ccccc2C3=O)cc1 = 46.4%
• O=C1c2ccccc2C(=O)c2oc(-c3cccnc3)nc21 = 42.4%

Param readout = residual activity; param system = UniProt:Q96FW1; param query = COc1cc(-c2nc3c(o2)C(=O)c2ccccc2C3=O)ccc1Cl ; response: value
70.2%

Param readout = residual activity; param system = UniProt:Q96FW1; param query = O=C1c2ccccc2C(=O)c2oc(-c3ccccc3Cl)nc21 ; response: value
60%

Param readout = residual activity; param system = UniProt:Q96FW1; param query = COc1ccc2c(c1)C(=O)c1nc(-c3cccc(OCCN(C)C)c3)[nH]c1C2=O ; response: value
78.4%

Param readout = residual activity; param system = UniProt:Q96FW1; param query = COc1cccc(-c2nc3c(o2)C(=O)c2ccccc2C3=O)c1F ; response: value
52.9%

Param readout = residual activity; param system = UniProt:Q96FW1; param query = CN1CC[C@@H](Oc2ccc(-c3nc4c(o3)C(=O)c3ccccc3C4=O)c(Cl)c2)C1 ; response: value
70.9%
